Conditions: in acetonitrile, 293.15 K
measurement_name: solubility (mole fraction)
Just the number.

Any idea what its solubility (mole fraction) is? The compound is N=C(Nc1ccccc1)Nc1ccccc1
0.0179

###

Conditions: in isobutanol, 305.65 K
measurement_name: solubility (mole fraction)
Hey, just send me the number, nothing else.

// returns reported solubility (mole fraction) for input N=C(Nc1ccccc1)Nc1ccccc1
0.0359
